- targetDesc: T1, interleukin-23 receptor (IL-23R), Q5VWK5
- T1 chain: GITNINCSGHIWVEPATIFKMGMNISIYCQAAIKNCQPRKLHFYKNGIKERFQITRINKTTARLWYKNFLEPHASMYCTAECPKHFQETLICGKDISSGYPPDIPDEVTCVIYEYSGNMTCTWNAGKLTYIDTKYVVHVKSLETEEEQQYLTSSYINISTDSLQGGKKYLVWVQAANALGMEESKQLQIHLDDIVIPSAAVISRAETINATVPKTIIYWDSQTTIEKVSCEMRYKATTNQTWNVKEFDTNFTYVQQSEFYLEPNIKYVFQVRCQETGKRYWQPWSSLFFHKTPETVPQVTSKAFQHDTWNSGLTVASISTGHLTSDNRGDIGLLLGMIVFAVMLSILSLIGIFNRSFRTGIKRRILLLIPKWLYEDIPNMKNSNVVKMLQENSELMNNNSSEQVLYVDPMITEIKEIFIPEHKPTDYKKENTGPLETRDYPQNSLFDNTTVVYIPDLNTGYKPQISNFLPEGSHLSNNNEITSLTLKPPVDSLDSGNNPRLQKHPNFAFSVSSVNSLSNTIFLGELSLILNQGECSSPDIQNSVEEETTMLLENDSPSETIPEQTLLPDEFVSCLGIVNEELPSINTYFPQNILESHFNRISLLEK
- testSummary: cell-based or functional assay
Starred links: 1 amine or outer side, 2 acyl side, 3 side chain; linkers in the order of their positions; H or OH if unused. Positions of bridges follow the written chain, without caps; N, C: chain ends. Non-standard residues stand in square brackets, D forms with d. No end group written: not given here. X7 = 2‑amino‑3‑(5-methylpyridin-3-yl)propanoic acid, Cc1cncc(CC(N[*:1])C(=O)[*:2])c1; Trp(7-Me) = Cc1cccc2c(C[C@H](N)C(=O)O)c[nH]c12; dLys(Me3) = C[N+](C)(C)CCCC[C@@H](N)C(=O)O; 3Pal = N[C@@H](Cc1cccnc1)C(=O)O; Lipidated = not defined here; Pen = CC(C)(S)[C@H](N)C(=O)O; Thp = NC1(C(=O)O)CCOCC1; Sar = CNCC(=O)O
Listed here: items and their measured IL23R Reporter Assay IC50.

binder	valueObserved
[dLys(Me3)][Pen]NT[Trp(7-Me)]K(Ac)[Pen][2‑amino‑3‑(4-(2-aminoethoxy)phenyl)propanoic acid][2‑amino‑3‑(6-hydroxynaphthalen-2-yl)propanoic acid][Thp]EN[3Pal][Sar] (not fully specified (bridges); ends and bridges not checked) [SEQ ID NO: 388]	< 0.01 µM
[Pen]NT[Trp(7-Me)]K(Lipidated)[Pen][2‑amino‑3‑(4-(2-aminoethoxy)phenyl)propanoic acid][2‑amino‑3‑(6-hydroxynaphthalen-2-yl)propanoic acid][Thp]K(Ac)N[3Pal][Sar] (disulfide 1-6 (inferred); ends not checked; also: K5 lipidated lysine, lipid not given here) [SEQ ID NO: 188]	> 0.1 µM

Prompt: Bench note: what IL23R Reporter Assay IC50 did R[Pen]NT[Trp(7-Me)]K(Ac)[Pen][2‑amino‑3‑(4-(2-aminoethoxy)phenyl)propanoic acid][2‑amino‑3‑(6-hydroxynaphthalen-2-yl)propanoic acid][Thp]K(Ac)N[X7][Sar] (disulfide 2-7 (inferred); ends not checked) [SEQ ID NO: 49] show?
Completion: < 0.01 µM
